Data origin: paper PMC11267536

Subject of test: human-mouse chimeric mAb 2C7 (mouse | human | mouse VL, human constant region)
Protocol summary: NMR titration; STD NMR; CP2 (0.17 to 1.70 mM) titrated into a solution of mAb; 50 mM phosphate pH 7.4, H2O:D2O 90:10; saturation time 2 s; one-site Langmuir isotherm; apparent
Bridges are numbered along the chain shown (N, C = ends).
Attribute measured: Kd (µM)
# output: bare number, implied unit µM

Query: Return Kd for the following binder: GPIPVLDENGLFAPGPCK-OH (bridge N-17; not fully specified (N-terminus, bridges)) [cyclic peptide 2 (CP2)]
Response: 61
